Tested on: PSMA^+ PC-3 PIP tumors
Test: MicroPET/CT imaging of mice transplanted with prostate cancer cell lines
Format: in vivo, nude mouse
Conditions: 150 min after injection
value.type: intake of mouse organ: Muscle (% ID/g)

INSERT INTO measurements (compound, result_number) VALUES
  ('O=C(O)CCC(NC(=O)NC(CCCCN(CC(=O)O)C(=O)COCCOCCNC(=O)C(CCCCNC(=O)CCCc1ccc(I)cc1)NC(=O)CN1CCN2CCN3CCN(CC1)CC(=O)[O][68Ga]([O]C(=O)C2)[O]C(=O)C3)C(=O)O)C(=O)O (stereo not shown) [[^68Ga]1h]', 1.70),
  ('O=C(O)CCC(NC(=O)NC(CCCCN(CC(=O)O)C(=O)COCCNC(=O)C(CCCCNC(=O)CCCc1ccc(I)cc1)NC(=O)CN1CCN2CCN3CCN(CC1)CC(=O)[O][68Ga]([O]C(=O)C2)[O]C(=O)C3)C(=O)O)C(=O)O (stereo not shown) [[^68Ga]1k]', 2.75),
  ('O=C(O)CCC(NC(=O)NC(CCCCN(CC(=O)O)C(=O)COCCOCCNC(=O)CN1CCN2CCN3CCN(CC1)CC(=O)[O][68Ga]([O]C(=O)C2)[O]C(=O)C3)C(=O)O)C(=O)O (stereo not shown) [[^68Ga]1e]', 0.02),
  ('Cc1ccc(CCCC(=O)NCCCCC(NC(=O)CN2CCN3CCN4CCN(CC2)CC(=O)[O][68Ga]([O]C(=O)C3)[O]C(=O)C4)C(=O)NCCOCCOCC(=O)N(CCCCC(NC(=O)NC(CCC(=O)O)C(=O)O)C(=O)O)CC(=O)O)cc1 (stereo not shown) [[^68Ga]1g]', 0.21);
